# assay_procedure: Mean exposure of saquinavir mesylate estimated by Cmax following oral repeat dosing of 1000 mg Invirase Film-coated tablet in healthy human
# Type: ADME, organism-based
# run_parameters: both, plasma
experimental_readout: Cmax (ng/mL)

{"structure_string": "CC(C)(C)NC(=O)[C@@H]1C[C@@H]2CCCC[C@@H]2CN1C[C@@H](O)[C@H](Cc1ccccc1)NC(=O)[C@H](CC(N)=O)NC(=O)c1ccc2ccccc2n1", "experimental_readout": "Cmax", "reading": 332}

---

# assay_procedure: Mean exposure of saquinavir mesylate estimated by Cmax following oral repeat dosing of 1000 mg Invirase Film-coated tablet in healthy woman
# Format: ADME, organism-based
# run_parameters: female, human, plasma
experimental_readout: Cmax

{"structure_string": "CC(C)(C)NC(=O)[C@@H]1C[C@@H]2CCCC[C@@H]2CN1C[C@@H](O)[C@H](Cc1ccccc1)NC(=O)[C@H](CC(N)=O)NC(=O)c1ccc2ccccc2n1", "experimental_readout": "Cmax", "reading": "395 ng/mL"}
